- study.system: Hck (UniProt P08631)
- Sequence (P08631 whole entry, looked up): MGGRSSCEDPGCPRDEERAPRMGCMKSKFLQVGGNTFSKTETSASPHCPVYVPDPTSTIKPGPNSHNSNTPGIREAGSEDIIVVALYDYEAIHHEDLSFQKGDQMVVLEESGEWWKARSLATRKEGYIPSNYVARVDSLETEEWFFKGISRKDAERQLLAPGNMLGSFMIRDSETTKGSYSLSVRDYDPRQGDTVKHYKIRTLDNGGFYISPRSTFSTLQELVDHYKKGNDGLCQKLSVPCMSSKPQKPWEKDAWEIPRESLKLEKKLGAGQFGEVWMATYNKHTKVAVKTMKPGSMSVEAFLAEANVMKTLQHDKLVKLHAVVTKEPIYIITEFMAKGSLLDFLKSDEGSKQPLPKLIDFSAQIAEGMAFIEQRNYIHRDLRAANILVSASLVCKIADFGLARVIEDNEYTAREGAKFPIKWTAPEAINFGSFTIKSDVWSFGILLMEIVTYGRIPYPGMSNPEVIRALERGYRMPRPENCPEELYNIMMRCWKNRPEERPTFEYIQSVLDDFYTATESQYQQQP
- experiment.summary: phosphorylation enrichment, bacterial display (enrichment ratio); higher = better substrate or ligand; peptides without Tyr show the background
Please map values of phosphorylation enrichment to classes as shown: lowest: < 0.5; middle: ≥ 0.5 and < 2; highest: ≥ 2

Example results:
>>> group("EREFKYGAHKF [OAT_Y50_N54K_YF]")
"lowest"
>>> group("CKRQFYLFKGK [RSPO4_Y112_YF]")
"lowest"
>>> group("LKALHYMVQTS [SACS_Y3367]")
"lowest"
>>> group("GFEEAYSVFKK [PAFAH1B1_Y28_YF]")
"highest"
>>> group("IIEDPYYGNDF [ACP1_Y132_S137F]")
"middle"

Data request: Band of DLDLTYIYPNI [PTEN_Y27] ?
Data returned: middle

Data request: Here is the next sequence: ILCTVYAFKTR [GRM3_Y754]
Data returned: middle

Data request: Let us now turn to YEPDAYDDLDQ [ELP5_Y302]
Data returned: middle

* * *

- study.system: SHP2-C SH2;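 also: peptide library displayed on the E. coli surface as eCPX fusions, selected cells deep-sequenced, score is each peptide's frequency after selection divided by its frequency in the input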
- experiment.summary: SH2 binding enrichment of the phosphorylated peptide, bacterial display (enrichment ratio); higher = better substrate or ligand; peptides without Tyr show the background
readout.label: SH2 binding enrichment
Respond numerically, and do not add a unit to the figure.

Worked set:
>>> value_reported("HFVDEYDPTIE [KRAS_Y32]")
0.666
>>> value_reported("YGGLRYGYGGL [KRTAP20-2_Y13_V17G]")
1.11
>>> value_reported("GIVEDYRPPLY [ACVRL1_Y421_F425L]")
0.783
>>> value_reported("EKMWTYMPSAE [GRIA4_Y695_R697P]")
0.444
>>> value_reported("EAAFVYAISSA [WNT4_Y113]")
0.745
>>> value_reported("FCVVRYCWLRR [MPZ_Y181_Y177C]")
0.515

Now for a further sequence.
Data request: Param item = MSRNLYSGDCF [DDR2_Y736_Y740C_YF] ; retrieve measured SH2 binding enrichment.
Data returned: 0.595

* * *

- study.system: MERTK (UniProt Q12866)
- Sequence (Q12866 whole entry, looked up): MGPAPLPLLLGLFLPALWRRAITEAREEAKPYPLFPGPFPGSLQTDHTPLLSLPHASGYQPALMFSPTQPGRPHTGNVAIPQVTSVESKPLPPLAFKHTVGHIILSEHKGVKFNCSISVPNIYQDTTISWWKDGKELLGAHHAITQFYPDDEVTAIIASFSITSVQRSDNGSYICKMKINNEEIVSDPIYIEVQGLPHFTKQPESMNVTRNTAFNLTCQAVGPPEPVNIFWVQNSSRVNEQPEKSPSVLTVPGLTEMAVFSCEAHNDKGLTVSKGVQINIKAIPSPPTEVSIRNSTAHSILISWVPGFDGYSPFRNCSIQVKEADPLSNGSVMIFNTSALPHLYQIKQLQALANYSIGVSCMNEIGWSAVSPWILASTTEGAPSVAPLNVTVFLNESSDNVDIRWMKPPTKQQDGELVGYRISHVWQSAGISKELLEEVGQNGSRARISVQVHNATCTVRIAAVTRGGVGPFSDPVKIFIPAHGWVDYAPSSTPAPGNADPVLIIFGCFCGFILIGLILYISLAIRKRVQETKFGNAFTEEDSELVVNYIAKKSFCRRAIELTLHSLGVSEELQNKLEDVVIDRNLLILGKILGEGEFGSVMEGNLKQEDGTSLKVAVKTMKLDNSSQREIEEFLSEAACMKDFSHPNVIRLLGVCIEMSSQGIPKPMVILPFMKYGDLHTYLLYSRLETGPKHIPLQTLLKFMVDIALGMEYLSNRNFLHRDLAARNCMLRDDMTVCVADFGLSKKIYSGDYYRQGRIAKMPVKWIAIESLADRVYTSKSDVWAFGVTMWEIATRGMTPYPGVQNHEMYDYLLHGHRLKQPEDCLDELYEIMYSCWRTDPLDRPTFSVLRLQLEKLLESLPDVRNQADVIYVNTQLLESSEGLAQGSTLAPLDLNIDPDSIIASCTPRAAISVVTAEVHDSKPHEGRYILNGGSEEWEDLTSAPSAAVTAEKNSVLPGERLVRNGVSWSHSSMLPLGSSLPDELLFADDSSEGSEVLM
- experiment.summary: phosphorylation enrichment, bacterial display (enrichment ratio); higher = better substrate or ligand; peptides without Tyr show the background
// Not satisfied strictly below 0.6 in phosphorylation enrichment; Satisfied otherwise

>>> group("YCRITYDIFPF [INTS13_Y67_M66T]")
"Satisfied"
>>> group("GGGGGYNCSSG [FUS_Y232_R234C]")
"Not satisfied"
>>> group("VNQSGYTLIRK [ATP6V0A2_Y688_R685Q]")
"Not satisfied"
>>> group("KSVVTYSPTTG [ITGB3BP_Y32_I30V]")
"Not satisfied"
>>> group("GSRGKCSSGFR [ATM_Y332_Y332C]")
"Not satisfied"

Data request: Test whether the sequence VEGIGYDFIPT [CBS_Y308] records phosphorylation enrichment of 0.6 or higher.
Data returned: Not satisfied

Data request: Param item: AGIKAYQSCLQ [ADGRA2_Y377_T375K]
Data returned: Not satisfied

Data request: Also check CSSGGYEPRGR [FUS_Y239_R234C]
Data returned: Not satisfied

Data request: Item: RKLASYRSCLL [DHX37_Y1080]
Data returned: Not satisfied

Data request: Entry CTTIHYFFMCN [TP53_Y234_N235Y_YF] please
Data returned: Not satisfied

Data request: How about VFGEEYEEQPR [ZMYM2_Y1033] ?
Data returned: Not satisfied

Data request: Lookup CTTIDYNYMCN [TP53_Y234_H233D]
Data returned: Not satisfied

Data request: Same thing, different sequence: GEYYRYLAEVA [YWHAG_Y133_D129E]
Data returned: Satisfied

Data request: Then NQSVRYDSSLK [ABCC8_Y1353_L1349Q] ?
Data returned: Not satisfied

* * *

- Test system: AncSZ
- experiment.summary: phosphorylation enrichment, bacterial display (enrichment ratio); higher = better substrate or ligand; peptides without Tyr show the background
Threshold check on phosphorylation enrichment: at or above 1 gives YES, strictly below gives NO.

Reference set (5 entries):
>>> group("LREKVYVSLEA [RXRA_Y397_A398V]")
"NO"
>>> group("LAGRYYALRSM [CKB_Y174_K177R]")
"NO"
>>> group("TVLWWYTGTRP [UGT1A1_Y337_R336W]")
"YES"
>>> group("VLPIDYYFPPQ [AR_Y552]")
"YES"
>>> group("PSQRHYVFFFS [PTEN_Y174_R173H_YF]")
"YES"

Turning now to a further sequence:
Data request: Evaluate EWKNNYPRLRE [OPA1_Y582] : phosphorylation enrichment at minimum 1?
Data returned: NO

* * *

- System: c-Abl (mouse)
- experiment.summary: phosphorylation enrichment, bacterial display (enrichment ratio); higher = better substrate or ligand; peptides without Tyr show the background
Rule: 1 for phosphorylation enrichment not less than 0.8, -1 for anything less.

Recorded results for 5 sequences are shown here.
>>> group("TDKLFYIFTSG [SLC27A4_Y243_YF]")
-1
>>> group("VTAALYGCLFE [BTD_Y536_R538C_YF]")
1
>>> group("SASQEYHIVKK [PDZD2_Y557]")
-1
>>> group("HQIQSYTCEID [DES_Y331]")
-1
>>> group("ASGKYYAMKIL [AKT3_Y174]")
-1

Data request: Identify whether the reported phosphorylation enrichment of the following sequence is 0.8 or greater: DKEKWYPLGTS [PIK3C2G_Y1438_N1442T]
Data returned: -1

Data request: Request: FHKALYTVRTF [PDE6C_Y266_S270T_YF]
Data returned: 1

Data request: Thanks! And FDAHIYEGCVI [PRKCD_Y64_R67C] ?
Data returned: 1

Data request: And GIVEDYRPPLY [ACVRL1_Y421_F425L] ?
Data returned: -1

Data request: Cool, now LNWIFYKDQTG [RS1_Y166_YF]
Data returned: 1

Data request: Next up: NTGNYYDLYGG [PTPN11_Y63_D61N]
Data returned: 1

* * *

sequences and their reported phosphorylation enrichment
- study.system: Hck (UniProt P08631)
- experiment.summary: phosphorylation enrichment, bacterial display (enrichment ratio); higher = better substrate or ligand; peptides without Tyr show the background

Consider the worked cases shown below.
>>> value_reported("EPVSDYINADI [PTPN11_Y304_N308D]")
0.637
>>> value_reported("MAFDRYVAVCA [OR52J3_Y125]")
0.537
>>> value_reported("ATARPYSPYII [LRP5_Y1528_R1529S]")
0.456
>>> value_reported("FEEDSYVTRSQ [RET_Y905_K907T_YF]")
0.531
>>> value_reported("QLPRGYISIPV [BAG3_Y205]")
0.718

Data request: Entry VNKIFYPDFIV [LIG3_Y768_YF] : reported phosphorylation enrichment = ?
Data returned: 0.529

Data request: Next record, please: DFLSSYSAVKQ [OAT_Y85_N89K]
Data returned: 0.429

Data request: Repeat for the following sequence: GHLFAYDWIRI [BEST1_Y227_S231R_YF]
Data returned: 1.6

Data request: Next entry: GGYTCYSDGKK [PROS1_Y266_C267S]
Data returned: 0.499

Data request: Could you do the same for VHNLDYFKMTT [FGFR3_Y647_K650M_YF] , please?
Data returned: 0.394

Data request: What about this sequence? THQNSYQPGRK [CEFIP_Y210]
Data returned: 0.375

Data request: Same again, this time with EGLRRYLENGK [HLA-A_Y195_W191G]
Data returned: 0.398

Data request: Next up: GFEEAYSVSKK [PAFAH1B1_Y28_F31S_YF]
Data returned: 0.487

* * *

Form field: phosphorylation enrichment (one value per entry).
- System: Fer (mouse)
- experiment.summary: phosphorylation enrichment, bacterial display (enrichment ratio); higher = better substrate or ligand; peptides without Tyr show the background
Reply with just the number.

>>> value_reported("KYLENYLNRLL [PLD2_Y169]")
0.609
>>> value_reported("REIIAYQPYGK [PRKCG_Y529_P524R]")
0.357
>>> value_reported("SLMNQYVNKEF [RAB7A_Y28_K32E]")
0.385
>>> value_reported("GGGGGYNCSSG [FUS_Y232_R234C]")
0.415
>>> value_reported("MDDDQYALLTT [EFCAB6_Y675]")
0.736
>>> value_reported("PLTKVYVVEGS [ZMPSTE24_Y253]")
0.567
>>> value_reported("DGTESYHTVSS [PLK1_Y462_L463H]")
0.348
>>> value_reported("SQDSAYHSGIQ [FLG_Y3940]")
0.404
>>> value_reported("EPTPGYEVSQR [TSC2_Y1788_G1791S]")
0.447
>>> value_reported("DLAGRYYALRS [CKB_Y173_K177R]")
0.477

# context switch: different sequence, same phosphorylation enrichment
Data request: Need phosphorylation enrichment of TINPIYEHVGY [CHN1_Y143] , thanks.
Data returned: 22.4
